Assignment: determine reported Binding strength of mutants (EC50 mutant/EC50 wild-type) for the given binders.
experimental_system: T1, CD3 (antigen of the anti-CD3 antibody, coated in the ELISA of Examples 1-3) (Homo sapiens (Human), UniProt P07766 23-126)
T1 construct: also called antibody antigen
T1 sequence (P07766 23-126 limits assumed, form in doubt): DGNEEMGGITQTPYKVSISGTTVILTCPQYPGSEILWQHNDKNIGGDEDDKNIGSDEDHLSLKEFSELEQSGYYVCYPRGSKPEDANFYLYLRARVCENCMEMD
method_summary: ELISA, coated antigen, anti-human IgG-HRP; reference wild-type antibody
Procedure: In the present invention, the activity of each mutant with a point mutation compared to that of its initial antibody is detected by ELISA. […] TMB substrate (Solarbio., Inc.) was used to detect absorbance at 450 nm. The effect on mutant binding strength was calculated through EC50 mutation/EC50 wild-type. According to the above method, the binding activity of anti-CD3 antibody SP34 mutant with mutations at different position shown in Table 1 was detected.
Unit fold implied. Number only.

The measured Binding strength of mutants (EC50 mutant/EC50 wild-type) associated with anti-CD3 antibody mutant VH-Y61C (antibody, V domains shown, Cys point mutant of the humanized anti-CD3 antibody; also called VH-61) VH: EVQLVESGGGLVQPGGSLRLSCAASGFTFSTYAMNWVRQAPGKGLEWVGRIRSKYNNYATCYADSVKDRFTISRDDSKNSLYLQMNSLKTEDTAVYYCARHGNFGNSYVSWFAYWGQGTLVTVSS VL: QTVVTQEPSLTVSPGGTVTLTCRSSTGAVTTSNYANWVQQKPGQAPRGLIGGTNKRAPGVPARFSGSLLGDKAALTLLGAQPEDEAEYFCALWYSNLWVFGGGTKLTVL reads 5.1

The measured Binding strength of mutants (EC50 mutant/EC50 wild-type) associated with anti-CD3 antibody mutant VH-F112C (antibody, V domains shown, Cys point mutant of the humanized anti-CD3 antibody; also called VH-112) VH: EVQLVESGGGLVQPGGSLRLSCAASGFTFSTYAMNWVRQAPGKGLEWVGRIRSKYNNYATYYADSVKDRFTISRDDSKNSLYLQMNSLKTEDTAVYYCARHGNFGNSYVSWCAYWGQGTLVTVSS VL: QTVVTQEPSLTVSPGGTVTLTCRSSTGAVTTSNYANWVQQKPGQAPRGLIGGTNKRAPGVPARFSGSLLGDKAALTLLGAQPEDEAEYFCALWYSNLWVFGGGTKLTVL reads 1.2

The measured Binding strength of mutants (EC50 mutant/EC50 wild-type) associated with anti-CD3 antibody mutant VH-D68C (antibody, V domains shown, Cys point mutant of the humanized anti-CD3 antibody; also called VH-68) VH: EVQLVESGGGLVQPGGSLRLSCAASGFTFSTYAMNWVRQAPGKGLEWVGRIRSKYNNYATYYADSVKCRFTISRDDSKNSLYLQMNSLKTEDTAVYYCARHGNFGNSYVSWFAYWGQGTLVTVSS VL: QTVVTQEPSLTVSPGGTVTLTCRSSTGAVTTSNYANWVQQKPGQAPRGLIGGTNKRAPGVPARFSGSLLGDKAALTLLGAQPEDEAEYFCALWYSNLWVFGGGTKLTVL reads 2
